The reported numbers originate from ChEMBL document CHEMBL3988442.

Give Percent Effect for every item shown.
# System: Trypanosoma cruzi
# Protocol text: Trypanosoma cruzi phosphomannomutase and mannose-1-phosphate guanylyltransferase assay
# Assay type: functional
# Design: scale not given: direction of the effect not stated beside the values
# Condition description: 10 µM
Give a bare numeral; the unit % is implied.

Q) Determine from records and report Percent Effect for CCOC(=O)c1sc2ccsc2c1CN
A) -5.29

Q) Identify measured Percent Effect corresponding to OC(CN1CCOCC1)c1ccc(OC(F)(F)F)cc1 (stereo not drawn)
A) 0.283

Q) Specify reported Percent Effect for the compound shown: Cc1cnccc1CN1C[C@@H](O)[C@H](Oc2cccc(F)c2)C1
A) 3.36

---

Please provide measured Percent Effect for the entries that follow.
# Measurement target: Ubiquitin-activating enzyme e1, putative (Leishmania donovani (strain BPK282A1)) (UniProt E9BSI1)
# Sequence (whole entry): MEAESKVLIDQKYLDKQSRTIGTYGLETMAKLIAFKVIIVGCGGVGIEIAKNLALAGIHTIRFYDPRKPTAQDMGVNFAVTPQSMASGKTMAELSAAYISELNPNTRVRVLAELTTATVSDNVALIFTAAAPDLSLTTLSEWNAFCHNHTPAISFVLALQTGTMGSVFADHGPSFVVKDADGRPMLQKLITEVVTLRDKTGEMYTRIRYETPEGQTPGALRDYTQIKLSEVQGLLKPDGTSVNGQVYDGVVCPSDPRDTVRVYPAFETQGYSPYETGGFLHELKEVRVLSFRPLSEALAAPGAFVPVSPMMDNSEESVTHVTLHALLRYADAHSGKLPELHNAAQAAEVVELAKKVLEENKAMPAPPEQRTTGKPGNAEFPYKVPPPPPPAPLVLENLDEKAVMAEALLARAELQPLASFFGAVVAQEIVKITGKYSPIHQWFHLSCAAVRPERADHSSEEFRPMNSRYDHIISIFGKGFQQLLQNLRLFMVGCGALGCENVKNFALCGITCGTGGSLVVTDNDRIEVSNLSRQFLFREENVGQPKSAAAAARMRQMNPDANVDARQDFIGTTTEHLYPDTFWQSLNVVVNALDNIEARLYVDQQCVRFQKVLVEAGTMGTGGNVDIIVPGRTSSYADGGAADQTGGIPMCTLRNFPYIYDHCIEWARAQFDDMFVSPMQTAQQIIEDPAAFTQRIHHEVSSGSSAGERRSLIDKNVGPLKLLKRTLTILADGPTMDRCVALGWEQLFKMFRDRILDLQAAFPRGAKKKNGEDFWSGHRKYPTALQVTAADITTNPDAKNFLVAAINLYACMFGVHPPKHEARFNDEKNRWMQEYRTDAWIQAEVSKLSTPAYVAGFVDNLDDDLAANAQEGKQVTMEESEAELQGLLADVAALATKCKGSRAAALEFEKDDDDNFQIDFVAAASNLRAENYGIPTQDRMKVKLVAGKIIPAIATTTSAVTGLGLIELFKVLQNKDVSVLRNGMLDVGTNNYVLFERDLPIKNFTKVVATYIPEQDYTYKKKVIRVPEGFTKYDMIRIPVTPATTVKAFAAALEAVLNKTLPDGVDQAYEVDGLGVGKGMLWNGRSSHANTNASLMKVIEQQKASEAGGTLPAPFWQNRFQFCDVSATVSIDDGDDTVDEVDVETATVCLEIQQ
# Protocol text: Leishmania donovani Ubiquitin Activating Enzyme (LdE1)
# Type: functional
# Set-up: scale not given: direction of the effect not stated beside the values
# Condition description: 30 µM
Results with a measured potency or affinity are listed apart.

Q) Dear colleague, please send me the reported Percent Effect for COCCCNC(=O)NCc1ccc(C)cc1 when you can.
A) 6.33%

Q) Give reported Percent Effect value for Cc1ccc([C@@H]2CN(S(=O)(=O)c3cccs3)C[C@H]2N(C)C)cc1
A) 2.7%

Q) Could you please provide reported Percent Effect for COC(C(=O)N1CCN(c2cccc(Cl)c2)C(=O)C1)c1ccccc1 (configuration not stated) ? Thanks!
A) 0%

Q) For the molecule N#Cc1ccc(CN2CCC(c3ccnn3CCO)CC2)cc1 , give its measured Percent Effect value.
A) 10.5%

Q) Identify the reported Percent Effect for the following entry. CN1CCCc2cc(NC(=O)N3CCOC(C(N)=O)C3)ccc21 (configuration not stated)
A) 21.9%

Q) Quickly give me recorded Percent Effect for O=C(Cc1ccc2c(c1)CCC2)NCCNc1ncccn1
A) 21.1%

Q) Please report Percent Effect for the following molecule: CS(=O)(=O)NCCCN1CCCC1c1ccccc1 (configuration not stated)
A) 5.06%

Q) Return Percent Effect (reported value) for this molecule: Cc1cc(CN2CCN(C(c3ccccc3)c3ccccc3)CC2)no1
A) 12.7%

Q) Annotate the molecule CC(=O)c1cn(CCC(=O)NCCC(=O)O)c2ccccc12 with its measured Percent Effect.
A) 9.33%

Q) Supply recorded Percent Effect for COCc1nc(C(=O)N2CCCC2c2c(C)nn(C)c2C)cs1 (configuration not stated) here.
A) -3.8%

Q) Determine from records and report Percent Effect for Cc1cn2nc(N3CCCC3CC(C)(C)C)sc2n1 (configuration not stated)
A) -1.27%

Q) Indicate its recorded Percent Effect; the molecule in question is O=C(NCc1cccnc1)C1=NN(c2ccccc2)C(=O)CN1
A) 18.9%

Q) Quote Percent Effect reported for Cc1nn(C)c(Cl)c1C1CCCN1C(=O)c1cc[nH]n1 (configuration not stated) please.
A) 2.7%

Q) Identify Percent Effect associated with the molecule Cn1ccnc1CC1CCCN(C(=O)Nc2cccn(C)c2=O)C1 (configuration not stated)
A) 5.41%

Q) Look up and report measured Percent Effect for this entry: Cc1ccccc1S(=O)(=O)NC(=O)CSc1ccc2c(c1)OCCO2
A) 1.39%

Q) State its Percent Effect for this molecule: CC(C)N(C)Cc1nnc2n1CCCN(C(=O)c1ccco1)C2
A) 10.4%

Q) Item Cc1cc(C)c(CNC(=O)NCC(c2ccccc2)N(C)C)c(=O)[nH]1 (configuration not stated) : provide Percent Effect
A) -2.63%
